# run description: Apparent intrinsic clearance in human liver microsomes in presence of NADPH
# Assay type: ADME
# run conditions: read-out: CLH(app)
readout kind: microsomal CLint (µL/min/mg)

// worked examples, microsomal CLint included
1) CCN1CCOc2ccc(C(=O)Nc3nnc(C4CC4)s3)cc21; 25
2) CCn1ncc2c(Cl)cc(C(=O)Nc3nnc(C4CC4)s3)cc21; 10.9

a. CCn1ncc2c(F)cc(C(=O)Nc3nnc(C4CC4)s3)cc21
b. Cn1ncc2cc(C(=O)Nc3nnc(C4CC4)s3)ccc21
Select one. Lower microsomal CLint: a or b // output: label of the selected item
a

----------
# run description: Apparent intrinsic clearance in human liver microsomes in presence of NADPH
# Type: ADME
# run conditions: read-out: CLH(app)
Reported microsomal CLint values for the following compounds.

These recorded examples may help you get a feel for the data.
1. CC(C)n1ncc2ccc(C(=O)Nc3nnc(C4CC4)s3)cc21; 13.2 µL/min/mg
2. Cn1ncc2ncc(C(=O)Nc3nnc(C4CC4)s3)cc21; < 8 µL/min/mg
3. Cn1ncc2ccc(C(=O)Nc3nnc(C4CC4)s3)cc21; < 8 µL/min/mg

Form: compound = CCn1ncc2c(F)cc(C(=O)Nc3nnc(C4(C)CCN(C(C)=O)C4)s3)cc21 (racemic) ; microsomal CLint = < 8 µL/min/mg

----------
# run description: Apparent intrinsic clearance in human liver microsomes in presence of NADPH
# Type: ADME
# run conditions: read-out: CLH(app)
microsomal CLint for assorted compounds

// microsomal CLint lookup, compound = CCn1ncc2c(F)cc(C(=O)Nc3nnc(C4(C)CCN(C(=O)C(C)O)CC4)s3)cc21 (racemic) , result: < 8 µL/min/mg

Looking up "CCn1ncc2c(F)cc(C(=O)Nc3nnc(C4(C)CN(C(C)=O)C4)s3)cc21" , I see its microsomal CLint listed as < 8 µL/min/mg

Sample "CCn1ncc2c(F)cc(C(=O)Nc3nnc(C4(C)CCN(C(C)=O)CC4)s3)cc21" ; microsomal CLint observed: < 8.6 µL/min/mg

Consider "CCn1ncc2c(F)cc(C(=O)Nc3nnc(C4(C)CCN(C(=O)C(C)(C)O)CC4)s3)cc21" . Its measured microsomal CLint is 20 µL/min/mg

The recorded microsomal CLint for "CCn1ncc2ccc(C(=O)Nc3nnc(C4CC4)s3)cc21" is < 8 µL/min/mg

Summary for this compound, "CCn1ncc2c(F)cc(C(=O)Nc3nnc(C4(C)CCN(C(=O)CO)CC4)s3)cc21" : microsomal CLint is < 8 µL/min/mg

Data provenance: ChEMBL document CHEMBL3797093
